Values compiled from the NIST ThermoML archive (doi:10.1021/je5005752).

# condition.details: 303.15 K; 101 kPa; Liquid; Vibrating tube method
measured.parameter: mass density (kg/m3)

compound=CC(C)CO measured_parameter="mass density" experimental_result=794.25
compound=CCCCCCO measured_parameter="mass density" experimental_result=811.52
compound=CCCO measured_parameter="mass density" experimental_result=795.72
compound=CC(C)CCO measured_parameter="mass density" experimental_result=801.09
compound="CCCC(=O)OCC [ethyl butanoate]" measured_parameter="mass density" experimental_result=868.33
compound=CCCCO measured_parameter="mass density" experimental_result=801.99

---

# test.method.notes: xn = mol fraction of the nth substance listed
# condition.details: 313.15 K; 101 kPa; Liquid; Vibrating tube method; x1 = 0.5
measured.parameter: mass density (kg/m3)

compound="CCCC(=O)OCC [ethyl butanoate] + CC(C)CO" experimental_result=826.25
compound="CCCC(=O)OCC [ethyl butanoate] + CCCCCCO" experimental_result=830.23
compound="CCCC(=O)OCC [ethyl butanoate] + CC(C)CCO" experimental_result=827.5
compound="CCCC(=O)OCC [ethyl butanoate] + CCCCO" experimental_result=830.18

---

# test.method.notes: xn = mol fraction of the nth substance listed
# condition.details: 288.15 K; 101 kPa; Liquid; Falling or rolling sphere viscometry; x1 = 0.5
measured.parameter: viscosity (mPa·s)

compound="CCCC(=O)OCC [ethyl butanoate] + CC(C)CCO" measured_parameter=viscosity experimental_result=1.184
compound="CCCC(=O)OCC [ethyl butanoate] + CC(C)CO" measured_parameter=viscosity experimental_result=1.057
compound="CCCC(=O)OCC [ethyl butanoate] + CCCCCCO" measured_parameter=viscosity experimental_result=1.399
compound="CCCC(=O)OCC [ethyl butanoate] + CCCCO" measured_parameter=viscosity experimental_result=1.022

---

# condition.details: 308.15 K; 101 kPa; Liquid; Vibrating tube method
measured.parameter: mass density (kg/m3)

compound="CCCCCCO [hexan-1-ol]" measured_parameter="mass density" experimental_result=807.89
compound="CC(C)CO [2-methyl-1-propanol]" measured_parameter="mass density" experimental_result=790.31
compound="CCCC(=O)OCC [ethyl butanoate]" measured_parameter="mass density" experimental_result=863.02
compound="CC(C)CCO [3-methylbutan-1-ol]" measured_parameter="mass density" experimental_result=797.31
compound="CCCO [propan-1-ol]" measured_parameter="mass density" experimental_result=791.64
compound="CCCCO [butan-1-ol]" measured_parameter="mass density" experimental_result=798.12

---

# test.method.notes: xn = mol fraction of the nth substance listed
# condition.details: 318.15 K; 101 kPa; Liquid; Vibrating tube method; x1 = 0.5
measured.parameter: mass density (kg/m3)

compound="CCCC(=O)OCC [ethyl butanoate] + CCCCCCO" measured_parameter="mass density" unit_text=kg/m3 experimental_result=825.69
compound="CCCC(=O)OCC [ethyl butanoate] + CC(C)CO" measured_parameter="mass density" unit_text=kg/m3 experimental_result=821.33
compound="CCCC(=O)OCC [ethyl butanoate] + CCCCO" measured_parameter="mass density" unit_text=kg/m3 experimental_result=825.33

---

# condition.details: 298.15 K; 101 kPa; Liquid; Vibrating tube method
measured.parameter: mass density (kg/m3)

line_notation=CCCCCCO measured_parameter="mass density" experimental_result=815.12
line_notation=CCCO measured_parameter="mass density" experimental_result=799.76
line_notation=CCCCO measured_parameter="mass density" experimental_result=805.84
